- Tested on: MDCK p60AmotL2-inducible + doxycycline (p60AmotL2 expressing)
- Method notes: drug sensitivity score (DSS) from 5-dose viability curve (DSS (area-based score, 0 = no response)); higher = more sensitive (stronger viability inhibition); extreme values may be limits of the assay
- Test context: doxycycline: 10 ng/mL; 72 h
Quantity: drug sensitivity score
Output: the number by itself.

Some solved cases for reference:
[
  {
    "Molecule": "COc1cc([C@@H]2c3cc4c(cc3[C@@H](O[C@@H]3O[C@@H]5CO[C@@H](c6cccs6)O[C@H]5[C@H](O)[C@H]3O)[C@H]3COC(=O)[C@H]23)OCO4)cc(OC)c1O [Teniposide]",
    "Recorded value": 2.7
  },
  {
    "Molecule": "COC(=O)c1ccc2c(c1)NC(=O)/C2=C(\\Nc1ccc(N(C)C(=O)CN2CCN(C)CC2)cc1)c1ccccc1 [Nintedanib]",
    "Recorded value": 8.3
  },
  {
    "Molecule": "C=CC(=O)N1CCC[C@@H](n2nc(-c3ccc(Oc4ccccc4)cc3)c3c(N)ncnc32)C1 [Ibrutinib]",
    "Recorded value": 9.7
  },
  {
    "Molecule": "Nc1nc(Cl)nc2c1ncn2[C@H]1C[C@H](O)[C@@H](CO)O1 [Cladribine]",
    "Recorded value": 2.3
  },
  {
    "Molecule": "N#CC[C@H](C1CCCC1)n1cc(-c2ncnc3[nH]ccc23)cn1 [Ruxolitinib]",
    "Recorded value": 0
  }
]

# molecule C=CCn1c(=O)c2cnc(Nc3ccc(N4CCN(C)CC4)cc3)nc2n1-c1cccc(C(C)(C)O)n1 [AZD1775] ; its drug sensitivity score = 12.9

drug sensitivity score measured on CNc1nc(Nc2cn(C(C)(C)C#N)nc2C)ncc1C(F)(F)F [GNE-0877] = 0

Sure, the documented drug sensitivity score for C=CC(=O)Nc1cccc(Nc2nc(Nc3ccc(OCCOC)cc3)ncc2F)c1 [Spebrutinib] is 0.8

---

- Tested on: MDCK p60AmotL2-inducible + doxycycline (p60AmotL2 expressing)
- Method notes: drug sensitivity score (DSS) from 5-dose viability curve (DSS (area-based score, 0 = no response)); higher = more sensitive (stronger viability inhibition); extreme values may be limits of the assay
- Test context: doxycycline: 10 ng/mL; 72 h
Entry class follows drug sensitivity score: Low (below 0.1), Mid (0.1 to below 5), High (5 or more)

Here's what some known entries look like.
[
  {
    "Molecule": "Cc1nc2cccc(N)c2c(=O)n1C1CCC(=O)NC1=O (centres undefined)",
    "Assayed target": "MDCK p60AmotL2-inducible + doxycycline (p60AmotL2 expressing)",
    "Label": "Low"
  },
  {
    "Molecule": "COc1cc2c(NC3CCN(C(C)C)CC3)nc(N3CCC(F)(F)CC3)nc2cc1OCCCN1CCCC1",
    "Assayed target": "MDCK p60AmotL2-inducible + doxycycline (p60AmotL2 expressing)",
    "Label": "Mid"
  },
  {
    "Molecule": "Cc1ccc(NC(=O)c2ccc(CN3CCN(C)CC3)cc2)cc1Nc1nccc(-c2cccnc2)n1",
    "Assayed target": "MDCK p60AmotL2-inducible + doxycycline (p60AmotL2 expressing)",
    "Label": "Mid"
  },
  {
    "Molecule": "CCOc1ccn(-c2ccc(F)cc2)c(=O)c1C(=O)Nc1ccc(Oc2ccnc(N)c2Cl)c(F)c1",
    "Assayed target": "MDCK p60AmotL2-inducible + doxycycline (p60AmotL2 expressing)",
    "Label": "Low"
  },
  {
    "Molecule": "Cn1cnc2c(F)c(Nc3ccc(Br)cc3F)c(C(=O)NOCCO)cc21",
    "Assayed target": "MDCK p60AmotL2-inducible + doxycycline (p60AmotL2 expressing)",
    "Label": "High"
  }
]

Next:
Lookup: Which category does the recorded drug sensitivity score put `O=C(CCCCCCC(=O)Nc1ccc([C@H]2O[C@@H](CSc3nc(-c4ccccc4)c(-c4ccccc4)o3)C[C@@H](c3ccc(CO)cc3)O2)cc1)NO` in?
Found: Low

---

- System: MDCK p60AmotL2-inducible + doxycycline (p60AmotL2 expressing)
- Method notes: drug sensitivity score (DSS) from 5-dose viability curve (DSS (area-based score, 0 = no response)); higher = more sensitive (stronger viability inhibition); extreme values may be limits of the assay
- Test context: doxycycline: 10 ng/mL; 72 h
Each item that follows carries a reported drug sensitivity score.
Just the number, please, no unit attached.

// below: answered molecules
[
  {
    "Line notation": "Cc1cc(-c2nc(-c3ccc(OC(F)(F)F)cc3)no2)nn1Cc1ccnc(N2CCN(C3CC3)CC2)c1",
    "drug sensitivity score": 0
  },
  {
    "Line notation": "C[C@@H](Oc1cc(-c2cnn(C3CCNCC3)c2)cnc1N)c1c(Cl)ccc(F)c1Cl",
    "drug sensitivity score": 0
  },
  {
    "Line notation": "Nc1cc(COc2c(Cl)cc(C[C@H](N)C(=O)O)cc2Cl)c2oc(-c3ccccc3)nc2c1",
    "drug sensitivity score": 0
  }
]

Field: next molecule
drug sensitivity score in this record for `C[C@]1(O)C[C@@H](c2nc(-c3ccc4ccc(-c5ccccc5)nc4c3)c3c(N)nccn32)C1` : 0

---

- Test system: MDCK p60AmotL2-inducible + doxycycline (p60AmotL2 expressing)
- Method notes: drug sensitivity score (DSS) from 5-dose viability curve (DSS (area-based score, 0 = no response)); higher = more sensitive (stronger viability inhibition); extreme values may be limits of the assay
- Test context: doxycycline: 10 ng/mL; 72 h
Assign 1 to entries whose drug sensitivity score meets or exceeds 0.9; assign -1 to the rest.

Lookup: Record `O=C(NOC[C@H](O)CO)c1ccc(F)c(F)c1Nc1ccc(I)cc1F` ; criterion: drug sensitivity score no lower than 0.9. Met?
Found: 1

Lookup: Identify whether the reported drug sensitivity score of the following compound is 0.9 or greater: `CN[C@@H]1C[C@H]2O[C@@](C)([C@@H]1OC)n1c3ccccc3c3c4c(c5c6ccccc6n2c5c31)C(=O)N[C@H]4O`
Found: 1

Lookup: Has `Cc1cc(Nc2ncnc3ccc(NC4=NC(C)(C)CO4)cc23)ccc1Oc1ccn2ncnc2c1` a recorded drug sensitivity score greater than or equal to 0.9?
Found: -1

---

- Tested on: MDCK p60AmotL2-inducible + doxycycline (p60AmotL2 expressing)
- Method notes: drug sensitivity score (DSS) from 5-dose viability curve (DSS (area-based score, 0 = no response)); higher = more sensitive (stronger viability inhibition); extreme values may be limits of the assay
- Test context: doxycycline: 10 ng/mL; 72 h
Given measured drug sensitivity score, output fulfilled if it is greater than or equal to 9 and not fulfilled if not.

[
  {
    "Line notation": "CCNC(=O)CCC/C=C\\C[C@@H]1[C@@H](/C=C/[C@@H](O)CCc2ccccc2)[C@H](O)C[C@@H]1O",
    "Label": "not fulfilled"
  },
  {
    "Line notation": "COC[C@H](NC(=O)c1cnc(C)s1)C(=O)N[C@@H](COC)C(=O)N[C@@H](Cc1ccccc1)C(=O)[C@@]1(C)CO1",
    "Label": "fulfilled"
  },
  {
    "Line notation": "COc1cc(Nc2ncc3c(n2)-c2ccc(Cl)cc2C(c2c(F)cccc2OC)=NC3)ccc1C(=O)O",
    "Label": "fulfilled"
  },
  {
    "Line notation": "CC/C(=C(\\c1ccccc1)c1ccc(OCCN(C)C)cc1)c1ccccc1",
    "Label": "not fulfilled"
  },
  {
    "Line notation": "CCOc1cc2ncc(C#N)c(Nc3ccc(OCc4ccccn4)c(Cl)c3)c2cc1NC(=O)/C=C/CN(C)C",
    "Label": "fulfilled"
  }
]

Lookup: Does the reported drug sensitivity score for `COc1cccc2c1C(=O)c1c(O)c3c(c(O)c1C2=O)C[C@@](O)(C(C)=O)C[C@@H]3O[C@H]1C[C@H](N)[C@H](O)[C@H](C)O1` fall at or above the 9 mark?
Found: fulfilled

Lookup: Assess whether reported drug sensitivity score for `Nc1ncn([C@H]2C[C@H](O)[C@@H](CO)O2)c(=O)n1` sits at 9 or higher.
Found: not fulfilled

---

- Tested on: MDCK p60AmotL2-inducible + doxycycline (p60AmotL2 expressing)
- Method notes: drug sensitivity score (DSS) from 5-dose viability curve (DSS (area-based score, 0 = no response)); higher = more sensitive (stronger viability inhibition); extreme values may be limits of the assay
- Test context: doxycycline: 10 ng/mL; 72 h
Records here are stratified by drug sensitivity score; strata: zone 1: < 0.1; zone 2: ≥ 0.1 and < 6; zone 3: ≥ 6

Use the examples below as a reference point.
[
  {
    "Line notation": "Nc1ccn([C@@H]2O[C@H](CO)[C@@H](O)[C@@H]2O)c(=O)n1",
    "Label": "zone 2"
  },
  {
    "Line notation": "CN(C)C[C@@H]1CCn2cc(c3ccccc32)C2=C(C(=O)NC2=O)c2cn(c3ccccc23)CCO1",
    "Label": "zone 2"
  },
  {
    "Line notation": "CC(C)NC[C@@H](C(=O)N1CCN(c2ncnc3c2[C@H](C)C[C@H]3O)CC1)c1ccc(Cl)cc1",
    "Label": "zone 2"
  },
  {
    "Line notation": "CCCCCCCCc1ccc(CCC(N)(CO)CO)cc1",
    "Label": "zone 3"
  }
]

Lookup: Record `CN(C)CCOc1ccc(/C(=C(/CCCl)c2ccccc2)c2ccccc2)cc1` — which class?
Found: zone 2

Lookup: Assign a bin to `CC#CC(=O)N1CCC[C@H]1c1nc(-c2ccc(C(=O)Nc3ccccn3)cc2)c2c(N)nccn12`
Found: zone 1

Lookup: # bin label for `C=CCN(/C=C1/C(=O)O[C@H](COC)[C@@]2(C)C1=C(O)C(=O)C1=C2[C@H](OC(C)=O)C[C@]2(C)C(=O)CC[C@@H]12)CC=C`
Found: zone 1

Lookup: Band of `CN(C(=O)c1ccc(F)cc1C(F)(F)F)C1CCN(c2nnc(-c3ccnn3C)c3ccccc23)CC1` ?
Found: zone 1

Lookup: Record `CO[C@@H](C)Cn1c(=O)n(C)c2cnc3ccc(-c4cncc(C(C)(C)O)c4)cc3c21` — which class?
Found: zone 3

Lookup: Please classify: `COc1cc(N2CCC(N3CCN(C)CC3)CC2)ccc1Nc1ncc(Cl)c(Nc2ccccc2P(C)(C)=O)n1`
Found: zone 2

Lookup: Hi, small favor: classify `Nc1ccccc1NC(=O)c1ccc(CNc2nccc(-c3cccnc3)n2)cc1` by its drug sensitivity score when you get a moment.
Found: zone 3

Lookup: Just checking, what class would you give `COc1ccc(S(=O)(=O)Nc2cccnc2Nc2ccc(O)cc2)cc1` here?
Found: zone 3

Lookup: Which of the defined bands does the recorded drug sensitivity score of `O[C@H]1CC[C@H](Nc2ncc3nc(Nc4c(F)cc(F)cc4F)n([C@H]4CCOC4)c3n2)CC1` sit within?
Found: zone 2

src = the supplement of paper PMC11003180
